The measurements presented in this section are drawn from BindingDB's records for doi:10.1016/j.bmcl.2017.11.026.

# TESTED TARGET: Tumor necrosis factor (Homo sapiens)
# TEST DESCRIPTION: Inhibition of LPS-induced TNF-alpha production in human PBMC preincubated for 30 mins followed by LPS addition measured after 5 hrs by ELISA
# IC50 values compiled below

// known answers, use as guide
COc1cccc(CNS(=O)(=O)c2cnc3ccc(-c4ccc(S(C)(=O)=O)cc4)nn23)c1 | 28 µM
O=S(=O)(c1cnc2ccc(Cl)nn12)N1CCN(c2ccccn2)CC1 | > 30 µM
N#CC1(c2ccccc2)CCN(S(=O)(=O)c2cnc3ccc(Cl)nn23)CC1 | 25 µM
O=S(=O)(c1cnc2ccc(-c3cncc(F)c3)nn12)N1CCN(c2ccccn2)CC1 | 28 µM
O=S(=O)(c1cnc2ccc(Cl)nn12)N1CCN(c2ccccc2)CC1 | 30 µM
O=S(=O)(c1cnc2ccc(-c3cccnc3)nn12)N1CCN(Cc2ccccc2)CC1 | 18 µM
CS(=O)(=O)c1ccc(-c2ccc3ncc(S(=O)(=O)N4CCN(c5ccccn5)CC4)n3n2)cc1 | 12 µM
COc1ccc(-c2ccc3ncc(S(=O)(=O)N4CCN(c5ccccn5)CC4)n3n2)cn1 | > 30 µM

Enquiry: Need IC50 of CCN1CCN(S(=O)(=O)c2cnc3ccc(-c4cncc(F)c4)nn23)CC1 , thanks.
Return: > 30 µM

Enquiry: Further, for COc1cccc(CNS(=O)(=O)c2cnc3ccc(Cl)nn23)c1 ?
Return: > 30 µM

Enquiry: Nc1ncc(-c2ccc3ncc(S(=O)(=O)N4CCN(c5ccccn5)CC4)n3n2)cc1C(F)(F)F , same question.
Return: 11 µM

Enquiry: Next molecule: CCN1CCN(S(=O)(=O)c2cnc3ccc(-c4ccc(OC)cc4)nn23)CC1
Return: 20 µM

Enquiry: Entry N#CC1(c2ccccc2)CCN(S(=O)(=O)c2cnc3ccc(-c4cncc(C(F)(F)F)c4)nn23)CC1 please
Return: 20 µM

Enquiry: Now consider O=S(=O)(c1cnc2ccc(-c3cncc(C(F)(F)F)c3)nn12)N1CCN(c2ccccn2)CC1 .
Return: 11 µM

Enquiry: Follow-up item: CCN1CCN(S(=O)(=O)c2cnc3ccc(-c4ccc(OC)nc4)nn23)CC1
Return: 20 µM

Enquiry: Moving on to the next molecule: COc1cccc(CNS(=O)(=O)c2cnc3ccc(-c4ccc(OC)nc4)nn23)c1
Return: > 30 µM

Enquiry: Can you handle CCN1CCN(S(=O)(=O)c2cnc3ccc(-c4cncc(C(F)(F)F)c4)nn23)CC1 next?
Return: 9 µM

---

# TESTED TARGET: Tumor necrosis factor (Homo sapiens, UniProt P01375)
# Sequence (P01375 whole entry): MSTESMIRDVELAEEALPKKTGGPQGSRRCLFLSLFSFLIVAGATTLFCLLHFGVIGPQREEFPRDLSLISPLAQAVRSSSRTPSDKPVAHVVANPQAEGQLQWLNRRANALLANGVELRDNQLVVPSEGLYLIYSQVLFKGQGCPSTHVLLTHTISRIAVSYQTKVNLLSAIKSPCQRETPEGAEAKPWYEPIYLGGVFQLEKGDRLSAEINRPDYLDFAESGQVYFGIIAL
# TEST DESCRIPTION: Inhibition of LPS-induced TNF-alpha production in human PBMC preincubated for 30 mins followed by LPS addition measured after 5 hrs by ELISA
Lab note: compare IC50 with 8 µM, writing y if less and n if equal or more.

The following compounds have reported results that may help.
O=S(=O)(NCC1CCCO1)c1cnc2ccc(Cl)nn12 (centres undefined) | n
COc1ccc(-c2ccc3ncc(S(=O)(=O)N4CCC(C#N)(c5ccccc5)CC4)n3n2)cc1OC | y
O=S(=O)(c1cnc2ccc(-c3cccnc3)nn12)N1CCN(c2ccccn2)CC1 | n
CS(=O)(=O)c1ccc(-c2ccc3ncc(S(=O)(=O)N4CCN(Cc5ccccc5)CC4)n3n2)cc1 | n
CCN1CCN(S(=O)(=O)c2cnc3ccc(-c4cccnc4)nn23)CC1 | n
COc1cccc(CNS(=O)(=O)c2cnc3ccc(-c4cncc(F)c4)nn23)c1 | y
N#CC1(c2ccccc2)CCN(S(=O)(=O)c2cnc3ccc(-c4cccnc4)nn23)CC1 | y

Enquiry: hey, is IC50 for COc1cccc(CNS(=O)(=O)c2cnc3ccc(-c4cncc(C(F)(F)F)c4)nn23)c1 lower than 8 µM or not?
Return: n
